# target: T1, CXCL12 (CXC Ligand 12) (UniProt O62657 22-89)
# T1 construct: mature; Untagged in BLI and NMR; CXCL12-His6 was used at 1 µM on the HMGB1 SPOT peptide arrays; also called CXCL12A-c021, wt 1-67, no tag; CXCL12-His6
# T1 sequence (P48061 22-89): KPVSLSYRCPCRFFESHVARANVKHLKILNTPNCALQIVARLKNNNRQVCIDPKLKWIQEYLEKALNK
# assay.name: BLI, biotinylated HMGB1 construct on streptavidin sensor, CXCL12 0-150 µM in solution; Michaelis-Menten (saturation) Req fit
measure: Kd (µM)
State the answer as a number, implicitly in µM.

Check out these entries, answers already filled in.
• FR-HMGB1 Box A 1-88 (full HMG Box with flanking regions) (ligand, biotinylated in BLI, also called extended box A 1-88; c037; not shown: biotinylation tag) GKGDPKKPRGKMSSYAFFVQTCREEHKKKHPDASVNFSEFSKKCSERWKTMSAKEKGKFEDMAKADKARYEREMKTYIPPKGETKKKF = 12.6
• non-oxidizable 3S-HMGB1, full-length (1-214) (ligand, Biotinylated (c022) in BLI with CXCL12, His6-tagged in the reverse peptide array; also called 3S-FL HMGB1 (c022)) GKGDPKKPRGKMSSYAFFVQTSREEHKKKHPDASVNFSEFSKKSSERWKTMSAKEKGKFEDMAKADKARYEREMKTYIPPKGETKKKFKDPNAPKRPPSAFFLFSSEYRPKIKGEHPGLSIGDVAKKLGEMWNNTAADDKQPYEKKAAKLKEKYEKDIAAYRAKGKPDAAKKGVVKAEKSKKKKEEEEDEEDEEDEEEEEDEEDEDEEEDDDDE = 8.79
• FR-HMGB1 Box A 8-78 (helical-only) (ligand, biotinylated in BLI, also called minimal Box A 8-78; c027; not shown: biotinylation tag (BLI) or His6 tag (reverse peptide array)) PRGKMSSYAFFVQTCREEHKKKHPDASVNFSEFSKKCSERWKTMSAKEKGKFEDMAKADKARYEREMKTYI = 17.5
• FR-HMGB1 Box B 94-162 (helical-only) (ligand, also: biotin or His6 tag in some assays, sequence not given here, also called HMGB1A-c028; not shown: C-terminal Avi / biotinylation tag (BLI, NMR) or His6 tag (reverse peptide array)) PKRPPSAFFLFCSEYRPKIKGEHPGLSIGDVAKKLGEMWNNTAADDKQPYEKKAAKLKEKYEKDIAAYR = 65
• fully-reduced HMGB1, full-length (1-214) (ligand, cysteines reduced (Cys 22, Cys 44, Cys 105), Tags differ by assay: biotinylated (c011) in BLI with CXCL12, His6-tagged in the reverse peptide array, TEV-cleaved in the RAGE ELISA and BLI; also called FR-HMGB1; FR FL-HMGB1 (c011)) GKGDPKKPRGKMSSYAFFVQTCREEHKKKHPDASVNFSEFSKKCSERWKTMSAKEKGKFEDMAKADKARYEREMKTYIPPKGETKKKFKDPNAPKRPPSAFFLFCSEYRPKIKGEHPGLSIGDVAKKLGEMWNNTAADDKQPYEKKAAKLKEKYEKDIAAYRAKGKPDAAKKGVVKAEKSKKKKEEEEDEEDEEDEEEEEDEEDEDEEEDDDDE = 15.3

Note: attention shifts to another entry.
Entry FR-HMGB1 Box B 89-174 (full HMG Box with flanking regions) (ligand, biotinylated in BLI and NMR, also called complete Box B; not shown: C-terminal biotinylation tag) SMKDPNAPKRPPSAFFLFCSEYRPKIKGEHPGLSIGDVAKKLGEMWNNTAADDKQPYEKKAAKLKEKYEKDIAAYRAKGKPDAAKKGV , Kd reported as 8.19
